target: T1, Tumor Necrosis Factor-alpha (UniProt P01375 77-233); experiment: SPR; reference TNF1 lead peptide
T1 construct: Immobilised on pipette tips or SPR chips (amine coupling or biotin capture); also called TNF-α; TNF-alpha
T1 sequence (P01375 77-233 limits assumed): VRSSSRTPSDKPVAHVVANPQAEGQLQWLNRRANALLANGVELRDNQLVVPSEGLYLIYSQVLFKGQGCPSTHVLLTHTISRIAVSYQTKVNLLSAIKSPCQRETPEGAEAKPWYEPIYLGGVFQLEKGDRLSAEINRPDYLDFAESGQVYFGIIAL
ATTRIBUTE_MEASURED: Kd Fold-Change Relative to Lead (fold)
Answers are plain numbers, in fold.

Record Kd Fold-Change Relative to Lead for all entries; do not skip any.
1. FERDPLMMPWKFLQSRQGSC [TNF1 S11K point-mutant]
2. FERDPLKMPWSFLQSRQGSC [TNF1 M7K point-mutant]
3. FERDYLMMPWSFLQSRQGSC [TNF1 P5Y point-mutant]
4. FERYPLMMPWSFLQSRQGSC [TNF1 D4Y point-mutant]

1: 3.9; 2: 2.8; 3: 2.7; 4: 3.6
